# SYSTEM_UNDER_TEST: human EDG8 (S1PR5) receptor (Homo sapiens)
# Construct: carries the transgenes human EDG8 (S1PR5) receptor (Acession number NP_110387.1)
# Sequence (Q9H228 whole entry): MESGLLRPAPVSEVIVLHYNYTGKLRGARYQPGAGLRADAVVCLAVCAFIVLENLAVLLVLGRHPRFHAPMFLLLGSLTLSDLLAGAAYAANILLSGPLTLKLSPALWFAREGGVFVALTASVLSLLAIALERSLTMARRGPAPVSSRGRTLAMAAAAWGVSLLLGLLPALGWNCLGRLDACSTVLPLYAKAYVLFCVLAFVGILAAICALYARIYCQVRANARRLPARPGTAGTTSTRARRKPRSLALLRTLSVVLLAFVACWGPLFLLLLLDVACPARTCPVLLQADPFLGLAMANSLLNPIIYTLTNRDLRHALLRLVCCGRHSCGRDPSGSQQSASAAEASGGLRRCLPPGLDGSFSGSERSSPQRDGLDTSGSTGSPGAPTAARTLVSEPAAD
# PROCEDURE_SUMMARY: Aequorin assay, agonist potency, CHO-A21-EDG8#12 cells
# EXPERIMENTAL_SETUP: agonist mode, aequorin luminescence; read-out: S1P5 EC50 range #
# Method: Agonistic activity was measured as described below. […] 18 hours prior to the test, vials of frozen cells are quickly thawed in a 37° C. water bath, cells are recovered by centrifugation and resuspended in assay buffer (DMEM/HAM's F12 with HEPES, without phenol red+0.1% fatty acid-free BSA). […] Cells are then placed in the luminescence reader (Hamamatsu Functional Drug Screening System 6000, FDSS6000). […] The resulting emission of light is recorded for 90 seconds using the FDSS6000. […]
pEC50: −log10 of the molar value. Where a name gives a salt, the structure may show the parent alone.
Assign pEC50 to each entry below.

Worked set:
[[record]]
compound = "O=C(O)C1(CN2CC3(Cc4ccc(OCc5ccc(OCC6CC6)cc5)cc4C3)C2)CC1 [Example 128]"
readout_kind = "pEC50"
observed_value = "5.00 to 6.00"

[[record]]
compound = "O=C(O)C1(CN2CC3(Cc4ccc(OCCc5cccc(F)c5)cc4C3)C2)CC1 [Example 148]"
readout_kind = "pEC50"
observed_value = "5.00 to 6.00"

[[record]]
compound = "O=C(O)C1(CN2CC3(Cc4ccc(OCc5c(F)cccc5F)cc4C3)C2)CC1 [Example 37]"
readout_kind = "pEC50"
observed_value = "5.00 to 6.00"

[[record]]
compound = "O=C(O)C1(CN2CC3(Cc4ccc(OCCc5ccc(Cl)cc5)cc4C3)C2)CC1 [Example 55]"
readout_kind = "pEC50"
observed_value = "5.00 to 6.00"

[[record]]
compound = "O=C(O)C1(CN2CC3(Cc4ccc(OCc5c(Cl)cccc5C5CC5)cc4C3)C2)CC1 [Example 44]"
readout_kind = "pEC50"
observed_value = "≥ 8.00"


Report pEC50 for each item below.
1. O=C(O)[C@H]1C[C@H](N2CC3(Cc4ccc(OCc5cc(Cl)ccc5Cl)cc4C3)C2)C1 [Example 89]
2. O=C(O)CN1CC2(Cc3ccc(OCc4ccccc4C4CC4)cc3C2)C1 [Example 111]
3. O=C(O)CN1CC2(Cc3ccc(OCCc4ccccc4C(F)(F)F)cc3C2)C1 [Example 62]
4. O=C(O)C1CC(N2CC3(Cc4ccc(OC5CCc6cccc(Cl)c65)cc4C3)C2)C1 (centres unmarked) [Example 106]
5. O=C(O)C1(CN2CC3(Cc4ccc(OCc5ccccc5C(F)(F)F)cc4C3)C2)CC1 [Example 41]
6. CCc1cccc(Cl)c1COc1ccc2c(c1)CC1(CCN(CC(=O)O)CC1)C2 [Example 161, hydrochloride]

A:
["7.00 to 8.00", "≥ 8.00", "≥ 8.00", "≥ 8.00", "5.00 to 6.00", "≥ 8.00"]

###

# SYSTEM_UNDER_TEST: human EDG1 (S1PR1) receptor (Homo sapiens, UniProt P21453)
# Sequence (P21453 whole entry): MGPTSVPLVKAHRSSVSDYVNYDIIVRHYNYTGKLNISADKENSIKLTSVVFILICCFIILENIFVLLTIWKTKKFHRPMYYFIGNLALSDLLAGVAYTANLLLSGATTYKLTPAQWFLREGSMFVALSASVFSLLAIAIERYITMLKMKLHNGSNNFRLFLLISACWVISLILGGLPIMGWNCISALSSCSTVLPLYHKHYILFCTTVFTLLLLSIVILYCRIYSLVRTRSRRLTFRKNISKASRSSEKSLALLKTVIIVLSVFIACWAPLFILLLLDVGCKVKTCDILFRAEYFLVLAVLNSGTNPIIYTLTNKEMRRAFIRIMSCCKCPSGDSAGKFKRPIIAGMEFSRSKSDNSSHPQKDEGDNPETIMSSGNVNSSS
# PROCEDURE_SUMMARY: Aequorin assay, agonist potency, CHO-A21-Edg1#17 cells
# EXPERIMENTAL_SETUP: agonist mode, aequorin luminescence; read-out: S1P1 EC50
pEC50: −log10 of the molar value.
READOUT_KIND: pEC50

Worked set:
[[record]]
compound = "O=C(O)C1CC(N2CC3(Cc4ccc(OCc5c(F)cccc5C5CC5)cc4C3)C2)C1 (centres unmarked)"
observed_value = "< 6.00"

[[record]]
compound = "CCc1cccc(Cl)c1COc1ccc2c(c1)CC1(C2)CN(CC2(C(=O)O)CC2)C1"
observed_value = "< 6.00"

[[record]]
compound = "CCOc1ccc(C#Cc2ccc3c(c2)CC2(C3)CN(C3CC(C(=O)O)C3)C2)cc1 (centres unmarked)"
observed_value = "> 6.00"

[[record]]
compound = "O=C(O)C1(CN2CC3(Cc4ccc(OCCc5ccccc5)cc4C3)C2)CC1"
observed_value = "< 6.00"


// next entry
Q: Consider the compound `O=C(O)C1(CN2CC3(Cc4ccc(OCCC5CCCCC5)cc4C3)C2)CC1` and give its recorded pEC50.
A: < 6.00
